// data source = patent US6620828B2

Target: CDK2/Cyclin A complex (Homo sapiens)
Assay: CDK2/Cyclin A assay
Type: biochemical
Parameters: concentration or dose not given beside the values
Settings: Table A combinatorial examples; footnote c not given
measure.name: CDK2^c

Some molecules with known CDK2^c results, for comparison:
# molecule, CDK2^c
records = [
    ("CCc1cc2c(cc1-c1csc(-c3sc(Nc4cc(OC)c5c(c4)OCCO5)nc3N)n1)C(C)(C)CCC2(C)C", 13.8),
    ("COc1cc(Nc2nc(N)c(-c3nc(-c4cc(-c5ccc(Cl)c(Cl)c5)no4)cs3)s2)cc(OC)c1OC", 17.5),
    ("COc1cc(Nc2nc(N)c(-c3nc(-c4ccc(C)cc4C)cs3)s2)cc(OC)c1OC", "−1.2"),
    ("COc1cc(Nc2nc(N)c(-c3nc(-c4ccccc4OC(=O)c4ccccc4)cs3)s2)cc(OC)c1OC", 4.6),
]

1 = COc1cc(Nc2nc(N)c(-c3nc(-c4ccc(C#N)cc4)cs3)s2)cc(OC)c1OC
2 = COc1cc(Nc2nc(N)c(-c3nc(-c4ccc5c(c4)OCCO5)cs3)s2)cc2c1OCCO2
3 = COc1cc(Nc2nc(N)c(-c3nc(-c4ccc(Cl)c(C)c4)cs3)s2)cc(OC)c1OC
4 = COc1cc(Nc2nc(N)c(-c3nc(-c4ccccc4)cs3)s2)cc(OC)c1OC [drawing 372]
5 = COc1cc(Nc2nc(N)c(-c3nc(-c4ccc(CC(=O)O)s4)cs3)s2)cc(OC)c1OC
hey, can you rank those molecules up there by CDK2^c? biggest number first please Respond with the label ranking, as requested.
5, 1, 2, 4, 3
(5: 26.7, 1: 15.6, 2: 5.4, 4: −1, 3: −4.4)

###

Biological target: phosphorylated VEGF-R2Δ50 (FLVK-P) (Homo sapiens, UniProt P35968, DEL940-989/E990V)
Construct: VEGF-R2Δ50 contains residues 806-939 and 990-1171; made in house; host or cells: baculovirus/insect cells
Sequence (P35968 with tags, fused parts or gaps DEL940-989/E990V limits assumed): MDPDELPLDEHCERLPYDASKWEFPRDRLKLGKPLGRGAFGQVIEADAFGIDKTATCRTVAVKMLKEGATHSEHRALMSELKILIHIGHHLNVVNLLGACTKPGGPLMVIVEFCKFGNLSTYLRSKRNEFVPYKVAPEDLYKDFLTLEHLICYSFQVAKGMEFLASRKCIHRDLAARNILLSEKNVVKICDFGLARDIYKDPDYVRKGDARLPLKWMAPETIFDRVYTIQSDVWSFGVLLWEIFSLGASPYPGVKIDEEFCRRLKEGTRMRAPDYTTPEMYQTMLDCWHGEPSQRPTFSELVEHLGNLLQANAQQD
Experiment: VEGF-R2 coupled spectrophotometric (FLVK-P) assay
Assay type: biochemical
Settings: Table 1; spectrophotometric assay
pKi: −log10 of the molar value. Counter-ions that a name gives are not always drawn.
measure.name: pKi

Some molecules with known pKi results, for comparison:
# molecule, measure.name, assay.result
records = [
    ("COc1cc(Nc2nc(N)c(-c3nc(-c4cccc(NC(=O)c5ccccc5C)c4)no3)s2)cc(OC)c1OC [D(57), trifluoroacetate salt]", "pKi", 7.74),
    ("COc1cc(Nc2nc(N)c(-c3nc(-c4cccc(NC(=O)c5ccc(Br)s5)c4)cs3)s2)cc(OC)c1OC", "pKi", 8.70),
    ("COc1cc(Nc2nc(N)c(-c3nc(-c4cccc(NC(=O)c5ccc(Cl)s5)c4)cs3)s2)cc(OC)c1OC", "pKi", 8.74),
]

a = COc1ccc(Nc2nc(N)c(-c3nc(-c4cccc(NC(=O)c5ccccc5)c4)cs3)s2)cc1OC
b = COc1cc(Nc2nc(N)c(-c3nc(-c4cccc(NC(=O)c5ccc(C)c(C)c5)c4)cs3)s2)cc(OC)c1OC
Name the one with the greater pKi value, either a or b as given. Record your answer as the label of the chosen record.
b
(b: 8.32, a: 8.10)

###

Biological target: phosphorylated VEGF-R2Δ50 (Homo sapiens, UniProt P35968, DEL940-989/E990V)
Construct: VEGF-R2Δ50 contains residues 806-939 and 990-1171; made in house; host or cells: baculovirus/insect cells
Sequence (P35968 with tags, fused parts or gaps DEL940-989/E990V limits assumed): as above
Assay: VEGF-R2 ELISA assay
Type: biochemical
Conditions: Table 2; * determined with ELISA assay; read-out: FLVK-P Ki
measure.name: Ki (µM)

# molecule, Ki / µM
rows = [
    ("COc1cc(Nc2nc(N)c(C3=NC(C(C)C)CO3)s2)cc(OC)c1OC (racemic) [I(17)]", 35),
    ("Nc1nc(Nc2ccc(S(N)(=O)=O)cc2)sc1-c1nc(-c2cccc(C(=O)O)c2)cs1 [A(21)]", 8.8),
    ("Nc1nc(Nc2ccc(S(N)(=O)=O)cc2)sc1-c1nc(-c2cccc(O)c2)cs1 [A(16)]", 0.022),
    ("Nc1nc(Nc2ccc(S(N)(=O)=O)cc2)sc1-c1nc(-c2cc(-c3ccc(Cl)cc3Cl)co2)cs1 [A(28)]", 131),
    ("COc1cc(Nc2nc(N)c(-c3nn[nH]n3)s2)cc(OC)c1OC [J(1)]", 64),
]

a = CN(C)c1ccc(Nc2nc(N)c(-c3nc(O)c(-c4ccccc4O)s3)s2)cc1 [H(3)]
b = COc1cc(Nc2nc(N)c(C3=NC(c4cccc(Br)c4)CO3)s2)cc(OC)c1OC (racemic) [I(14)]
Of a and b , which carries the smaller reported Ki figure? Record your answer as the label of the chosen record.
b
(b: 1.17 µM, a: 6.1 µM)
